Recorded measurements of pKd, one per entry
Molecular target: T1, PUF4 RNA-binding domain (Saccharomyces cerevisiae, UniProt P25339 537-888)
T1 sequence: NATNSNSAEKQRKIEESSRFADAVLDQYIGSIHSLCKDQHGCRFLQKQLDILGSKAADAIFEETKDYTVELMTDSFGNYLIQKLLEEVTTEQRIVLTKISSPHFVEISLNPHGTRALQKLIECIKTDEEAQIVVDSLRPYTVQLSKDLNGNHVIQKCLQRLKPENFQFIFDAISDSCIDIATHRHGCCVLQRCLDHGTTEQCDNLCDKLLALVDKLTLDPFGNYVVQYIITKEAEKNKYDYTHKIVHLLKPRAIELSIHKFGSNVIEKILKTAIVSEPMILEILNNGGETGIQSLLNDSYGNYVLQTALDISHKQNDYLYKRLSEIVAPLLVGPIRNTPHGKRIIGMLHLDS
Assay: Mg; RNA-MaP; 20 mM Na-HEPES pH 7.4, 30 mM KOAc, 0.75 mM MgCl2, 0.1% Tween-20, 5% glycerol, 0.1 mg/mL BSA, 2 mM DTT; 25 C; 0.0125-409.6 nM protein
Conditions: tags: N-His6-TEV cleaved; C-SNAP kept, Cy3B-labelled; label: tethered on chip by stalled RNA polymerase
pKd: −log10 of the molar value.
ENDPOINT LABEL: pKd

INSERT INTO results (binder, relation_sign, obs_value) VALUES
  ('UCUCUUACACACUAUUACCUCUCUU (ssRNA) [Id_ii_S1_P4E.4_K4.3_C4.2_[C-2A]_[T-1C]_H4.3_A4.1_F4.1_T4.2_[G10C]_[T11C]]', '<', 5.64),
  ('UCUCUUUGUAACCGAUCUCUU (ssRNA) [Ic_S1_P4E.1_K4.1_C4.1_H4.1_A4.1_[T5A]_[A6C]_[T7C]_F4.1_[T8G]_T4.1]', '<', 5.64),
  ('UCUCUUUGUACAGUGUCUCUU (ssRNA) [Ic_S1_P4E.1_K4.1_C4.1_H4.1_A4.1_[T5C]_[T7G]_F4.1_[A9G]_T4.1]', '=', 7.78),
  ('Id_ii_S4_P5E.2_K5.1_C5.2_[C-2A]_[T-1C]_H5.1_A5.1_F5.1_T5.2_[A12C] (ssRNA) RNA: UUUGACAACUGAUCGUUCUUUCUACUGUAUUAUUAUCUUCUUUCUCGAUCAGUUGUCUUU', '=', 8.67),
  ('UCUCUUAGUAUAUAUUAUCUCUCUU (ssRNA) [Id_ii_S1_P4E.3_K4.2_C4.2_[C-2A]_[T-1G]_H4.2_A4.1_F4.1_T4.2_[G10T]_[T11C]]', '=', 7.37),
  ('UCUCUUUGUAUGCUCUCUCUU (ssRNA) [Ic_S1_P4E.1_K4.1_C4.1_H4.1_A4.1_[A6G]_[T7C]_F4.1_[A9C]_T4.1]', '=', 6.17);
